All figures here come from patent US20020010333A1.

Tested on: ovalbumin-induced asthma attack
test: Inhibition of the antigen-induced early-phase reaction (ovalbumin-induced bronchospasm, Konzett-Rössler) in the presensitized guinea pig
Format: in vivo, albino guinea pigs
experimental-context: Cavia porcellus, iv; 25 mg/kg i.v. 15 minutes before antigen; protected = asthma reaction reduced by at least 40% relative to control; read-out: Protected animals after i.v. administration, number (converted)
I'd be grateful if you could share measured responders at 25 mg/kg for these entries.
Hi! Could you send only the number? It should be in %, unit omitted.

The recorded responders at 25 mg/kg for entry `CCn1c(=O)n(CC(C)(C)O)c(=O)c2[nH]cnc21` equals 66.7

Record `CCn1c(=O)n(CCC(C)(C)O)c(=O)c2[nH]cnc21` , field responders at 25 mg/kg: 50

For CC(=O)CCCCn1c(=O)c2c(ncn2C)n(C)c1=O [Pentoxifylline, 3,7-dimethyl-1-(5-oxohexyl)xanthine, reference compound] the compound record lists responders at 25 mg/kg as 33.3

* * *

Test system: ovalbumin-induced asthma attack
test: Inhibition of the antigen-induced early-phase reaction (ovalbumin-induced bronchospasm, Konzett-Rössler) in the presensitized guinea pig
Format: in vivo, albino guinea pigs
experimental-context: Cavia porcellus, iv; 10 mg/kg i.v. 15 minutes before antigen; protected = asthma reaction reduced by at least 40% relative to control; read-out: Protected animals after i.v. administration, % proportion
Hi there, I'd appreciate the recorded responders at 10 mg/kg for every entry that follows.
Answer with the value and then the unit.

responders at 10 mg/kg recorded for this molecule, `Cn1c(=O)n(CCCCCC(C)(C)O)c(=O)c2[nH]cnc21` , is 50%

Record `CCn1c(=O)n(CC(C)(C)O)c(=O)c2[nH]cnc21` , field responders at 10 mg/kg: 33%

For this molecule ( `CCn1c(=O)n(CCC(C)(C)O)c(=O)c2[nH]cnc21` ), measured responders at 10 mg/kg is 17%

Kindly note the recorded responders at 10 mg/kg for `Cn1c(=O)n(CCCCC(C)(C)O)c(=O)c2[nH]cnc21` , which is 33%

The molecule listed as CC(=O)CCCCn1c(=O)c2c(ncn2C)n(C)c1=O [Pentoxifylline, 3,7-dimethyl-1-(5-oxohexyl)xanthine, reference compound] shows responders at 10 mg/kg equal to 17%

Noted for CCOCn1cnc2c1c(=O)n(CCCCC(C)(C)O)c(=O)n2C [Torbafylline, reference compound] : its responders at 10 mg/kg reads 0%

The recorded responders at 10 mg/kg for entry Cn1c(=O)n(CCCCC(C)(O)CO)c(=O)c2[nH]cnc21 (centres unmarked) equals 50%

Record CCC(C)(O)CCCCn1c(=O)c2[nH]cnc2n(C)c1=O (centres unmarked) . Reported responders at 10 mg/kg: 67%

* * *

System: ovalbumin-induced asthma attack
test: Inhibition of the antigen-induced early-phase reaction (ovalbumin-induced bronchospasm, Konzett-Rössler) in the presensitized guinea pig
Assay type: in vivo, albino guinea pigs
experimental-context: Cavia porcellus, iv; 25 mg/kg i.v. 15 minutes before antigen; protected = asthma reaction reduced by at least 40% relative to control; read-out: Protected animals after i.v. administration, number (converted)
Description: Albino guinea pigs of both sexes having a body weight of 180 to 220 g were sensitized on two successive days by subcutaneous administration of 1 mg of ovalbumin (0.1% strength dissolved in physiological saline solution) in each case. […] To assess the action of the preparation, the number of animals of the respective collective in which the asthma reaction was reduced by at least 40% relative to the control animals was determined.
Mark yes (1) only for responders at 25 mg/kg values smaller than 70%; exact matches and larger values are no (0).

Query block: Input Cn1c(=O)n(CCCCC(C)(C)O)c(=O)c2[nH]cnc21 [Example 7] ; condition: responders at 25 mg/kg strictly below 70%. Does it hold?
Result block: no (0)

Query block: Determine whether this compound shows responders at 25 mg/kg lower than 70% (ties excluded): CCOCn1cnc2c1c(=O)n(CCCCC(C)(C)O)c(=O)n2C [Torbafylline, reference compound]
Result block: yes (1)

Query block: Quick check: does CCC(C)(O)CCCCn1c(=O)c2[nH]cnc2n(C)c1=O (centres unmarked) [Example 9] have responders at 25 mg/kg under 70%?
Result block: no (0)

Query block: Does Cn1c(=O)n(CCCCCC(C)(C)O)c(=O)c2[nH]cnc21 [Example 12] have responders at 25 mg/kg strictly under 70%?
Result block: yes (1)

Query block: Just wondering, is responders at 25 mg/kg of Cn1c(=O)n(CCCCC(C)(O)CO)c(=O)c2[nH]cnc21 (centres unmarked) [Example 8] below 70%?
Result block: yes (1)
